B1: HDV Ribozyme (parent)
chain: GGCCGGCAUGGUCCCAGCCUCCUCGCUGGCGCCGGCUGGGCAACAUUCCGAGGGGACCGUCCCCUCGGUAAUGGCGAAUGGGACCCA

Variants of: B1
test_name: self-cleavage, relative activity (ratio to wild type); higher = more cleavage; co-transcriptional

>  <variant_id>
G40U A87U

>  <self-cleavage>
0.667

$$$$
>  <variant_id>
G50U G54U

>  <self-cleavage>
0.668

$$$$
>  <variant_id>
G38A G59U

>  <self-cleavage>
0.182

$$$$
>  <variant_id>
C24G G74A

>  <self-cleavage>
0.124

$$$$
>  <variant_id>
U23A G28C

>  <self-cleavage>
0.142

$$$$
>  <variant_id>
C4G C7A

>  <self-cleavage>
0

$$$$
>  <variant_id>
G6A G52C

>  <self-cleavage>
0.831

$$$$
>  <variant_id>
C57U C63U

>  <self-cleavage>
0.958

$$$$
>  <variant_id>
U12C C13A

>  <self-cleavage>
0.0665

$$$$
>  <variant_id>
C61A C85U

>  <self-cleavage>
1.05

$$$$
>  <variant_id>
G6U G52C

>  <self-cleavage>
0.554

$$$$
>  <variant_id>
C4A A16C

>  <self-cleavage>
0.0339

$$$$
>  <variant_id>
A43G A87C

>  <self-cleavage>
0.688

$$$$
>  <variant_id>
C57G C64A

>  <self-cleavage>
1.04

$$$$
>  <variant_id>
U12C A56U

>  <self-cleavage>
0.499

$$$$
>  <variant_id>
G11C U72G

>  <self-cleavage>
0

$$$$
>  <variant_id>
U72G A87G

>  <self-cleavage>
0.546

$$$$
>  <variant_id>
G31U C61U

>  <self-cleavage>
0.478

$$$$
>  <variant_id>
G17C A51C

>  <self-cleavage>
0.308

$$$$
>  <variant_id>
U47A U65C

>  <self-cleavage>
0.8

$$$$
>  <variant_id>
U12A G28C

>  <self-cleavage>
0

$$$$
>  <variant_id>
U27A C44U

>  <self-cleavage>
0.482

$$$$
>  <variant_id>
C21G C30A

>  <self-cleavage>
0

$$$$
